The measurements presented in this section are drawn from patent US6750253B1.

- Test system: IL-1β
- assay_explanation: Inhibition of IL-1β secretion in LPS stimulated peripheral blood mononuclear cells
- Type: cell-based
- assay_setup: PBMC; LPS stimulated human peripheral blood mononuclear cells, 18 hours, ELISA; read-out: The median inhibition concentration (IC50, nM) of IL-1β
Recorded IC50 for the following molecules
Please respond with the number in nM and leave the unit unwritten.

- item_smiles: "CCNC(=O)Nc1cc(F)ccc1Nc1ccc(C(=O)c2ccccc2C)c(Cl)c1"
  tested_system: "IL-1β"
  IC50 (nM): 7.9
- item_smiles: "CCNC(=O)Nc1ccccc1Nc1ccc(C(=O)c2ccccc2C)c(Cl)c1"
  tested_system: "IL-1β"
  IC50 (nM): 22

We next turn to a different molecule, shown below.
Query :: Please tell me: IC50 of Cc1ccccc1C(=O)c1ccc(Nc2ccccc2NC(=O)NC2CCCCC2)cc1Cl , system IL-1β?
Result :: 13
